Test system: KM12 colon
Test: NCI tumour cell line growth inhibition, 48 h
Kindly state TGI for each of the entries shown.

COCCn1c2c([n+](Cc3cnccn3)c1C)C(=O)c1ccccc1C2=O; 0.557 µM
O=C(CC(C(=O)c1cccs1)c1ccc2c(c1)OCO2)c1ccccc1 (stereo unspecified); > 100 µM
CCCCCCCCCCCCCCCCCCOc1ccccc1COP(=O)(O)OOCC[N+](C)(C)C; 2.12 µM
c1ccc(/C(=N/Nc2ccccn2)c2cccnn2)cc1; > 100 µM
O=C1CN(c2ccccc2)C(=O)CN1NCNN1CC(=O)N(c2ccccc2)CC1=O; > 100 µM
[O-][N+]1=C2CCC/C(=N/O)C2(O)C2CCCCC21N1CCOCC1 (stereo unspecified); > 100 µM
CCn1ncc(N=O)c1N; > 100 µM
O=C(Nc1cccc(-n2cc(-c3ccncc3)c(-c3ccc(Cl)c(O)c3)n2)c1)Nc1ccc(Cl)c(Cl)c1; 4.47 µM
CC1(C)N([O-])[N+](=O)C1(C)O (stereo unspecified); > 100 µM
C=C(C)CCC(O)[C@](C)(O)[C@H]1[C@H](O)C[C@@]2(C)[C@@H]3CCc4c(cc(OC5OC(CO)C(O)C(O)C5O)c(O)c4C)C3(C)C(=O)C[C@]12C (stereo partly specified); > 100 µM

Please state, for each entry, its recorded TGI.
1. O=c1n(CC2CS2)c2ccccc2n1CC1CS1 (stereo unspecified)
2. CCCCCCc1cc2cc(C(=O)Nc3cccc(F)c3)c(=N)oc2cc1O

Result:
> 100 µM
8.3 µM

Please state, for each entry, its recorded TGI.
1. N#CCCN(c1ccc(C=O)cc1)S(=O)(=O)c1ccccc1
2. CC#CC#C/C=C1\C=CC2(OC=CC2O)O1 (stereo unspecified)

Result:
["> 100 µM", "7.3 µM"]

Please state, for each entry, its recorded TGI.
1. C=C(C)COc1cc(NC(=S)OC(C)C)ccc1Cl
2. C=C1CN2CCc3c([nH]c4ccccc34)C2CC1CC(=O)N(C)C (stereo unspecified)
3. C=C(Br)COc1ccc2c(C)cc(=O)oc2c1
4. CN1CCc2c(sc3ncn(Nc4ccc(F)cc4)c(=N)c23)C1
5. COc1cc(C(c2ccc3c(c2)OCO3)C2SCCCS2)cc(OC)c1OC (stereo unspecified)

Result:
1: 65.7 µM; 2: > 309 µM; 3: 12.1 µM; 4: > 100 µM; 5: 26 µM

Please state, for each entry, its recorded TGI.
1. CC(=O)ON=C1C=CC(=C(C#N)c2ccccc2)C=C1
2. CC/C(=C(/c1ccc(OCCN(C)C)cc1)c1ccc(OC(=O)CCCCCCCCC(=O)c2c(C)[nH]c(/C=C3\N=C(c4ccc[nH]4)C=C3OC)c2C)cc1)c1ccccc1
3. COC(=O)Cc1c(C2C(CC(=O)OC)c3ccccc3N2C2OC(CO)C(O)C(O)C2O)[nH]c2ccccc12 (stereo unspecified)

Result:
["1.71 µM", "> 100 µM", "> 100 µM"]

* * *

System: SN12C renal
Test: NCI tumour cell line growth inhibition, 48 h
EXPERIMENTAL_ENDPOINT: TGI

Past entries and their recorded results:
CC/C(=C(/c1ccc(OCCN(C)C)cc1)c1ccc(OC(=O)CCCCCCCCC(=O)c2c(C)[nH]c(/C=C3\N=C(c4ccc[nH]4)C=C3OC)c2C)cc1)c1ccccc1; > 100 µM
CC(=O)O[C@@H]1CC[C@@]2(C)C(=O)C34C[C@@]5(C)C([C@@H](C)CCCC(C)C)CCC5(C)[C@](O)(O3)C(=O)[C@H]4C2C1(C)C (some centres undefined); 26.7 µM
COc1cccc(/C=N/[N-]C(N)=O)c1[O-].[Co+2].[OH3+].c1ccncc1; > 100 µM

Please state, for each entry, its recorded TGI.
1. CCCCCCCCCCCCCCCCCCOc1ccccc1COP(=O)(O)OOCC[N+](C)(C)C
2. [CH3][Hg]/[N]=C(/N)NC#N
3. O=C(CCCn1ccnc1[N+](=O)[O-])NCCn1cnc([N+](=O)[O-])n1
4. COC(=O)C1=CCC2c3[nH]c4ccccc4c3CCN2C1 (centres undefined)
5. Cn1c(=O)c2c(=O)cc(N)[nH]c2n(C)c1=O
6. NS(=O)(=O)c1ccc(NC(=O)c2ccc3nc4ccccc4c(Nc4ccc(S(N)(=O)=O)cc4)c3c2)cc1
7. O=C(Nc1ccc(F)cc1)c1cc2c(cc1Cl)Sc1nccn1S2(=O)=O
8. COC(=O)c1c2c(cc3c1CC1(C3)Cc3cc4c(c(C(=O)OC)c3C1)CCC4)CCC2

Result:
1. 3.17 µM
2. 28.5 µM
3. > 100 µM
4. > 354 µM
5. > 100 µM
6. > 100 µM
7. > 100 µM
8. > 100 µM
